B1: FBXO3 (parent)
chain: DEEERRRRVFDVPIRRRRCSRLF

variants of: B1; test: protein stability index of a GFP-peptide fusion (GPS, HEK-293T) (PSI 1-6); higher = more stable; conditions: c terminus: native;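 note: lentivirally expressed fusions sorted by FACS into six bins by GFP to DsRed ratio, PSI derived from sequencing read proportions per bin multiplied by bin number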
Reported protein stability index values are given for each entry in this list.
Answer field: number only, no words.

Solved entries:
IN: Give the value of protein stability index reported for the following: "E4I"
OUT: 2.16

IN: Read off the recorded protein stability index for "E2H"
OUT: 1.79

IN: Consider the variant "V12G" . State its measured protein stability index.
OUT: 3.26

IN: Complete the entry with protein stability index for "F23S"
OUT: 1.03

IN: Note protein stability index for the variant shown: "R21I"
OUT: 2.93

Next:
IN: Please give the documented protein stability index of "R21T"
OUT: 3.85

IN: Assign protein stability index to the following record: "F23P"
OUT: 2.6

IN: Tell me measured protein stability index for "R7K" please.
OUT: 2.79

IN: Name the recorded protein stability index of the variant listed here: "R18L"
OUT: 2.68

IN: Using known records, supply protein stability index for "P13L"
OUT: 3.65

IN: Read the entry "R16T" and write its reported protein stability index.
OUT: 2.19
